Data origin, for the record: paper PMC8512817

target or system: T1, DLG1-1 PDZ (DLG1 PDZ1, residues 220-317) (human, UniProt Q12959 220-317)
T1 construct: not shown: His tag, N-terminal, kept
T1 sequence (Q12959 220-317): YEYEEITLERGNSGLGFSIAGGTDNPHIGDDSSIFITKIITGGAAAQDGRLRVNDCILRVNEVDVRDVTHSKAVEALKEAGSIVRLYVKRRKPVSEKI
test name: fluorescence polarisation
condition summary: both partners purified
pKi: −log10 of the molar value.
Each entry below carries its reported pKi.
readout: pKi

1) ASESKV [B1AR peptide (ASESKV)]
4.36
2) QSESRL [A9UP44 peptide (QSESRL)]
4.41
3) QDETAL [A9UXE1 peptide (QDETAL)]
3.72
4) SSRTRRETQL [HPV16 E6 peptide (SSRTRRETQL)]
4.64
5) WDETNL [BPIX peptide (WDETNL)]
3.34
